System: OVCAR-3 ovarian
Assay: NCI tumour cell line growth inhibition, 48 h
test_readout: TGI

INSERT INTO results (compound, test_readout, result) VALUES
  ('c1ccc2c(c1)Sc1ccccc1N2CC1CN2CCC1CC2 (centres undefined)', 'TGI', '11.9 µM'),
  ('O=S1[C@H](c2ccccc2)c2c(-c3ccccc3)sc(-c3ccccc3)c2[C@@H]1c1ccccc1 (some centres undefined)', 'TGI', '> 100 µM'),
  ('COc1c(C)c(OC)c2c(c1O)[C@@H]1[C@@H]3Cc4c(OC)c(C)c(OC)c(O)c4[C@H](CNC(=O)c4ccc5ccccc5n4)N3[C@@H](C#N)[C@H](C2)N1C', 'TGI', '0.0023 µM'),
  ('c1cc2ccc3cc2cc1CNCCN1CCNCc2ccc4ccc(cc4c2)CNCCN(CCNC3)CCNCc2ccc3ccc(cc3c2)CNCC1', 'TGI', '8.04 µM'),
  ('Clc1ccc(Cl)c(N=Nc2cc3c4c(c2)CCCN4CCC3)c1', 'TGI', '> 10 µM'),
  ('Cc1ccc(S(=O)(=O)N2CCCN(S(=O)(=O)c3ccc(C)cc3)CC2)cc1', 'TGI', '> 100 µM'),
  ('COC(=O)c1ccccc1C1CN=NC12Cc1c(C)cccc1C2=O (centres undefined)', 'TGI', '> 100 µM'),
  ('CC1=Nc2c(N)nc(N)nc2N(C)C1', 'TGI', '> 100 µM'),
  ('CCOC(=O)c1cnc2oc(-c3ccc(OC)cc3)nn2c1=O', 'TGI', '> 100 µM'),
  ('Cc1cc2c(C(C)C)c(O)c(O)c(C=NCC3CCCN4CCCCC34)c2cc1-c1cc2c(C=NCC3CCCN4CCCCC34)c(O)c(O)c(C(C)C)c2cc1C (centres undefined)', 'TGI', '29 µM');

Each compound below has a recorded value; state its TGI.
1. CN1CCN(Cn2nc(COc3ccc(Cl)cc3)n(/N=C/c3ccc(-c4ccc(Cl)cc4Cl)o3)c2=S)CC1
2. CC1=C2[C@H]3OC(=O)[C@@H](C)[C@@H]3CC[C@@]2(C)C=CC1=O
3. COC(=O)c1ccc([C@H]2c3[nH]c4ccccc4c3C[C@H](C(=O)OC)N2C(=O)CCl)cc1
4. O=C(O)c1cc2cc(OCc3ccccc3)ccc2[nH]1
5. COc1ccc2oc(=O)cc(C3c4ccc([nH]4)C(c4cc(=O)oc5ccc(OC)cc45)c4ccc([nH]4)C(c4cc(=O)oc5ccc(OC)cc45)c4ccc([nH]4)C(c4cc(=O)oc5ccc(OC)cc45)c4ccc3[nH]4)c2c1 (centres undefined)
6. CSC1(C)CC2C(CC1N1CCOCC1)C2(C)C (centres undefined)
7. CCN(C(=O)N[C@@H](Cc1ccccc1)C(=O)N[C@@H](CC(C)C)C(=O)NC)c1ccccc1

Ans:
["30.6 µM", "> 100 µM", "2.12 µM", "> 100 µM", "0.611 µM", "> 100 µM", "> 100 µM"]

Each compound below has a recorded value; state its TGI.
1. O=c1c2ccccc2sc2nc(CCl)nn12
2. COC1CC(OC)C2OC(c3ccccc3)OCC2O1 (centres undefined)

Ans:
> 100 µM
> 100 µM

FYI, the data here is from PubChem BioAssay (NCI).
